- Assayed Target: IRAK4 (Homo sapiens)
- Measurement Notes: OCI-LY-10 MSD assay for IRAK4 DC50
- Assay type: cell-based
- Set-up: endogenous in cells; host or cells: OCI-LY10
- Test Settings: OCI-LY10 cells, 4 hr incubation, concentration required to degrade 50% of protein
Property Measured: DC50

[[record]]
compound = "CN(CCOCCOCCOCCNc1cccc2c1C(=O)N(C1CCC(=O)NC1=O)C2=O)C(=O)c1nn(C)cc1NC(=O)c1coc(-c2ccnc(NCC(F)(F)F)c2)n1 (stereo not drawn)"
property_measured = "DC50"
assay_result = "> 1000 nM"

[[record]]
compound = "O=C1CCC(N2C(=O)c3cccc(N4CCN(CCOCCOCCOCCNCc5ccc(-n6cc(NC(=O)c7coc(-c8ccnc(NCC9CC9)c8)n7)c(C(F)F)n6)cc5)CC4)c3C2=O)C(=O)N1 (stereo not drawn)"
property_measured = "DC50"
assay_result = "100 to 500 nM"

[[record]]
compound = "Cn1c(=O)n(C2CCC(=O)NC2=O)c2ccc(CNCCOCCNCc3ccc(-n4cc(NC(=O)c5coc(-c6ccnc(NCC7CC7)c6)n5)c(C(F)F)n4)cc3)cc21 (stereo not drawn)"
property_measured = "DC50"
assay_result = "< 50 nM"

[[record]]
compound = "Cn1c(=O)n(C2CCC(=O)NC2=O)c2ccc(CCCN3CCO[C@@H](CNCc4ccc(-n5cc(NC(=O)c6coc(-c7ccnc(NCC8CC8)c7)n6)c(C(F)F)n5)cc4)C3)cc21 (stereo partly drawn)"
property_measured = "DC50"
assay_result = "< 50 nM"

[[record]]
compound = "Cc1ncsc1-c1ccc(CNC(=O)[C@@H]2C[C@@H](O)CN2C(=O)[C@@H](NC(=O)COCCOCCOCCNCc2ccc(-n3cc(NC(=O)c4coc(-c5ccnc(NCC(F)(F)F)c5)n4)c(C(N)=O)n3)cc2)C(C)(C)C)cc1"
property_measured = "DC50"
assay_result = "100 to 500 nM"

[[record]]
compound = "Cn1c(=O)n(C2CCC(=O)NC2=O)c2ccc(CCCCOCCCCNCc3ccc(-n4cc(NC(=O)c5cnn6ccc(N7CCNCC7)nc56)c(C(F)F)n4)cc3)cc21 (stereo not drawn)"
property_measured = "DC50"
assay_result = "> 1000 nM"

[[record]]
compound = "Cn1c(=O)n(C2CCC(=O)NC2=O)c2cccc(CCCOCCOCCNCc3ccc(-n4cc(NC(=O)c5coc(-c6ccnc(NCC7CC7)c6)n5)c(C(F)F)n4)cc3)c21 (stereo not drawn)"
property_measured = "DC50"
assay_result = "< 50 nM"

[[record]]
compound = "O=C1CCC(N2C(=O)c3cccc(N4CCN(CCOCCOCCNC(=O)c5ccc(-n6cc(NC(=O)c7coc(-c8ccnc(NCC9CC9)c8)n7)c(C(F)F)n6)cc5)CC4)c3C2=O)C(=O)N1 (stereo not drawn)"
property_measured = "DC50"
assay_result = "50 to 100 nM"

[[record]]
compound = "Cn1c(=O)n(C2CCC(=O)NC2=O)c2ccc(CCCOCCCN3CCN(C4CCC(Nc5ncnn6ccc(C7CCOCC7)c56)CC4)CC3)cc21 (stereo not drawn)"
property_measured = "DC50"
assay_result = "> 1000 nM"

[[record]]
compound = "O=C1CCC(n2c(=O)oc3cc(CCCOCCCNCc4ccc(-n5cc(NC(=O)c6coc(-c7ccnc(NCC8CC8)c7)n6)c(C(F)F)n5)cc4)ccc32)C(=O)N1 (stereo not drawn)"
property_measured = "DC50"
assay_result = "< 50 nM"

[[record]]
compound = "CN(CCCc1cccc2c1C(=O)N(C1CCC(=O)NC1=O)C2=O)Cc1ccc(-n2cc(NC(=O)c3coc(-c4ccnc(NCC(F)(F)F)c4)n3)c(C(F)F)n2)cc1 (stereo not drawn)"
property_measured = "DC50"
assay_result = "> 1000 nM"

[[record]]
compound = "CN(CCCCOCCCCc1ccc2c(c1)n(C)c(=O)n2C1CCC(=O)NC1=O)C(=O)c1ccc(-n2cc(NC(=O)c3coc(-c4ccnc(NCC(F)(F)F)c4)n3)c(C(N)=O)n2)cc1 (stereo not drawn)"
property_measured = "DC50"
assay_result = "< 50 nM"


###

- Assayed Target: IRAK4 (Homo sapiens, UniProt Q9NWZ3)
- Sequence (Q9NWZ3 whole entry): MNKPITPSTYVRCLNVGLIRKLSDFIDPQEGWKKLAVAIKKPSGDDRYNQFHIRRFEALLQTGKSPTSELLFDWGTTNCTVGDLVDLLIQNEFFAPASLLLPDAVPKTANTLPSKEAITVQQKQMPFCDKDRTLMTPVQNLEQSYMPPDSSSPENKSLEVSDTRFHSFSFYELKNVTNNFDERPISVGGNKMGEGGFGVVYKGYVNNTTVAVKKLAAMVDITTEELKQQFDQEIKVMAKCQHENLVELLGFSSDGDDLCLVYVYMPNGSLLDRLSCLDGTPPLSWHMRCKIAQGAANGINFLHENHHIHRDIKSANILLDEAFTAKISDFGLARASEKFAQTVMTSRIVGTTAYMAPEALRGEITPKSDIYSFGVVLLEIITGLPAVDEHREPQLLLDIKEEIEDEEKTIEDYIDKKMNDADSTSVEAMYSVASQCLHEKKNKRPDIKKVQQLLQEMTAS
- Measurement Notes: OCI-LY-10 degradation assay (western blot, % IRAK4 degraded after 4 hours)
- Type: cell-based
- Design: endogenous in cells; host or cells: OCI-LY10
- Test Settings: OCI-LY10 cells, 4 hours, 0.01 uM compound
Property Measured: OCI-LY10 % IRAK4 Degradation (0.01 uM)

[[record]]
molecule = "O=C1CCC(N2C(=O)c3cccc(CCCNCc4ccc(-n5cc(NC(=O)c6coc(-c7ccncc7)n6)c(C(F)F)n5)cc4)c3C2=O)C(=O)N1 (stereo not shown) [I-366]"
assay_result = "C (<20% degradation)"

[[record]]
molecule = "O=C1CCC(N2C(=O)c3ccc(CCCNC(=O)c4ccc(-n5cc(NC(=O)c6coc(-c7ccncc7)n6)c(C(F)F)n5)cc4)cc3C2=O)C(=O)N1 (stereo not shown) [I-260]"
assay_result = "C (<20% degradation)"

[[record]]
molecule = "O=C1CCC(N2C(=O)c3ccc(CCCN4CCC(n5cc(NC(=O)c6coc(-c7ccnc(NCC8CC8)c7)n6)c(C(F)F)n5)CC4)cc3C2=O)C(=O)N1 (stereo not shown) [I-264]"
assay_result = "C (<20% degradation)"

[[record]]
molecule = "O=C1CCC(N2C(=O)c3cccc(NCCOCCOCCNC(=O)c4ccc(-n5cc(NC(=O)c6coc(-c7ccnc(NCC8CC8)c7)n6)c(C(F)F)n5)cc4)c3C2=O)C(=O)N1 (stereo not shown) [I-246]"
assay_result = "C (<20% degradation)"

[[record]]
molecule = "CN(CCOCCCc1cccc2c1C(=O)N(C1CCC(=O)NC1=O)C2=O)C(=O)c1ccc(-n2cc(NC(=O)c3coc(-c4ccnc(NCC5CC5)c4)n3)c(C(N)=O)n2)cc1 (stereo not shown) [I-229]"
assay_result = "C (<20% degradation)"

[[record]]
molecule = "O=C1CCC(N2C(=O)c3ccc(N4CCN(CCOCCOCCNCc5ccc(-n6cc(NC(=O)c7coc(-c8ccnc(NCC9CC9)c8)n7)c(C(F)F)n6)cc5)CC4)cc3C2=O)C(=O)N1 (stereo not shown) [I-337]"
assay_result = "C (<20% degradation)"

[[record]]
molecule = "CN(CCOCCCc1cccc2c1C(=O)N(C1CCC(=O)NC1=O)C2=O)Cc1ccc(-n2cc(NC(=O)c3coc(-c4ccncc4)n3)c(C(F)F)n2)cc1 (stereo not shown) [I-363]"
assay_result = "C (<20% degradation)"

[[record]]
molecule = "NC(=O)c1nn(-c2ccc(CNCCOCCOCCCc3cccc4c3CN(C3CCC(=O)NC3=O)C4=O)cc2)cc1NC(=O)c1coc(-c2ccnc(NCC3CC3)c2)n1 (stereo not shown) [I-324]"
assay_result = "B (>20-50% degradation)"

[[record]]
molecule = "CN(CCCc1cccc2c1C(=O)N(C1CCC(=O)NC1=O)C2=O)Cc1ccc(-n2cc(NC(=O)c3coc(-c4ccnc(NCC5CC5)c4)n3)c(C(F)F)n2)cc1 (stereo not shown) [I-355]"
assay_result = "B (>20-50% degradation)"


###

- Assayed Target: IRAK4 (Homo sapiens)
- Measurement Notes: OCI-LY-10 degradation assay (western blot, % IRAK4 degraded after 4 hours)
- Format: cell-based
- Design: endogenous in cells; host or cells: OCI-LY10
- Test Settings: OCI-LY10 cells, 4 hours, 0.01 uM compound
- Description: Compounds were reconstituted in DMSO to make stock solutions at concentration of 60 mM. THP-1 and OCI-LY10 cells were maintained in RPMI-1640 medium containing 10% FBS, 0.5 μM 2-ME or 20% FBS, 55 μM 2-ME, and 1% L-Glutamine respectively. […] The protein concentration of cell lysates was quantified with Pierce™ BCA Protein Assay Kit (Pierce, 23227). […] After incubation at 37° C. for 30 min, the absorbance of samples at 562 nm were measured with EnVision Plate Reader. […]
Property Measured: OCI-LY10 % IRAK4 Degradation (0.01 uM)

[[record]]
compound = "O=C1CCC(N2C(=O)c3cccc(NCCNCCCCCNC(=O)c4ccc(-n5cc(NC(=O)c6coc(-c7ccnc(NC8CC8)c7)n6)c(C(F)F)n5)cc4)c3C2=O)C(=O)N1 (centres unmarked)"
assayed_target = "IRAK4 (Homo sapiens)"
assay_result = "B (>20-50% degradation)"

[[record]]
compound = "O=C1CCC(N2C(=O)c3ccc(OCCc4cnnn4CCOCCOCCNCc4ccc(-n5cc(NC(=O)c6coc(-c7ccnc(NCC8CC8)c7)n6)c(C(F)F)n5)cc4)cc3C2=O)C(=O)N1 (centres unmarked)"
assayed_target = "IRAK4 (Homo sapiens)"
assay_result = "C (<20% degradation)"

[[record]]
compound = "O=C1CCC(N2C(=O)c3cccc(OCCc4cnnn4CCOCCOCCNCc4ccc(-n5cc(NC(=O)c6coc(-c7ccnc(NCC8CC8)c7)n6)c(C(F)F)n5)cc4)c3C2=O)C(=O)N1 (centres unmarked)"
assayed_target = "IRAK4 (Homo sapiens)"
assay_result = "B (>20-50% degradation)"

[[record]]
compound = "O=C1CCC(N2C(=O)c3cccc(CCCCCN4CCC(n5cc(NC(=O)c6coc(-c7ccnc(NCC8CC8)c7)n6)c(C(F)F)n5)CC4)c3C2=O)C(=O)N1 (centres unmarked)"
assayed_target = "IRAK4 (Homo sapiens)"
assay_result = "C (<20% degradation)"

[[record]]
compound = "CN(CCCc1ccc2c(c1)C(=O)N(C1CCC(=O)NC1=O)C2=O)Cc1ccc(-n2cc(NC(=O)c3coc(-c4ccnc(NCC5CC5)c4)n3)c(C(F)F)n2)cc1 (centres unmarked)"
assayed_target = "IRAK4 (Homo sapiens)"
assay_result = "B (>20-50% degradation)"

